# assay.summary: Stability of 225Ac complexes in human serum (competition, TLC)
# Type: in vitro ADME
# settings: ambient temperature, 7 d
Some molecules, each annotated with its measured % Stable.
Supply the numeric figure in %, leaving out any unit text.

For orientation, consider the following solved cases.
[[record]]
molecule = "O=C([O-])CN1CCN(CC(=O)[O-])CCN(CC(=O)[O-])CCN(CC(=O)[O-])CC1.[225Ac+3] [[^225Ac(DOTA)]^−, reference compound]"
reported = 84.7

[[record]]
molecule = "O=C([O-])CN(Cc1cccc(C(=O)[O-])n1)C1CCCCC1N(CC(=O)[O-])Cc1cccc(C(=O)[O-])n1.[225Ac+3] (stereo not shown) [[^225Ac(CHXoctapa)]^−]"
reported = 95.6

[[record]]
molecule = "O=C([O-])c1cccc(CN(CCN(Cc2cccc(C(=O)[O-])n2)CP(=O)([O-])[O-])CP(=O)([O-])[O-])n1.[225Ac+3] [[^225Ac(phospa)]^3−]"
reported = 77.1


// switching to the query molecule
Give the value of % Stable reported for the following: O=C([O-])CN(CCN(CC(=O)[O-])Cc1cccc(C(=O)[O-])n1)Cc1cccc(C(=O)[O-])n1.[225Ac+3] [[^225Ac(octapa)]^−]
92.9

###

# assay.summary: Stability of 225Ac complexes in human serum (competition, TLC)
# Type: in vitro ADME
# settings: ambient temperature, 1 h
readout.type: % Stable (%)
Supply the numeric figure in %, leaving out any unit text.

For orientation, consider the following solved cases.
[[record]]
molecule = "O=C([O-])CN(Cc1cccc(C(=O)[O-])n1)C1CCCCC1N(CC(=O)[O-])Cc1cccc(C(=O)[O-])n1.[225Ac+3] (stereo not shown) [[^225Ac(CHXoctapa)]^−]"
reported = 95.9

[[record]]
molecule = "O=C([O-])CN1CCN(CC(=O)[O-])CCN(CC(=O)[O-])CCN(CC(=O)[O-])CC1.[225Ac+3] [[^225Ac(DOTA)]^−, reference compound]"
reported = 93.9

[[record]]
molecule = "O=C([O-])c1cccc(CN(CCN(Cc2cccc(C(=O)[O-])n2)CP(=O)([O-])[O-])CP(=O)([O-])[O-])n1.[225Ac+3] [[^225Ac(phospa)]^3−]"
reported = 81.6


// switching to the query molecule
Give the value of % Stable reported for the following: O=C([O-])CN(CCN(CC(=O)[O-])Cc1cccc(C(=O)[O-])n1)Cc1cccc(C(=O)[O-])n1.[225Ac+3] [[^225Ac(octapa)]^−]
97.9

###

Some molecules, each annotated with its measured % Stable.
# assay.summary: Stability of 225Ac complexes in human serum (competition, TLC)
# Assay type: in vitro ADME
# settings: ambient temperature, 1 d
Supply the numeric figure in %, leaving out any unit text.

For orientation, consider the following solved cases.
[[record]]
molecule = "O=C([O-])CN(CCN(CC(=O)[O-])Cc1cccc(C(=O)[O-])n1)Cc1cccc(C(=O)[O-])n1.[225Ac+3] [[^225Ac(octapa)]^−]"
unit_tag = "%"
reported = 94.9

[[record]]
molecule = "O=C([O-])c1cccc(CN(CCN(Cc2cccc(C(=O)[O-])n2)CP(=O)([O-])[O-])CP(=O)([O-])[O-])n1.[225Ac+3] [[^225Ac(phospa)]^3−]"
unit_tag = "%"
reported = 81.5

[[record]]
molecule = "O=C([O-])CN1CCN(CC(=O)[O-])CCN(CC(=O)[O-])CCN(CC(=O)[O-])CC1.[225Ac+3] [[^225Ac(DOTA)]^−, reference compound]"
unit_tag = "%"
reported = 90.9


Give the value of % Stable reported for the following: O=C([O-])CN(Cc1cccc(C(=O)[O-])n1)C1CCCCC1N(CC(=O)[O-])Cc1cccc(C(=O)[O-])n1.[225Ac+3] (stereo not shown) [[^225Ac(CHXoctapa)]^−]
97.0
